These entries and their values trace back to patent US10647713B2.

biological target: human TYK2 (JH2domain-pseudokinase) (Homo sapiens (Human)); test: TYK2 JH2 Domain Binding Assay (KINOMEscan, DiscoveRx); conditions: 11-point dilution, duplicate
pKd: −log10 of the molar value.
pKd overview

The compound listed as COCCOc1ccc(Nc2cc(Nc3ccccc3S(C)(=O)=O)c3nc(C)[nH]c3n2)nc1C#N has a reported pKd of > 10.00

Now look at this one.
Consider COc1c(Nc2cc(NC(=O)C3CC3)nc3[nH]c(C)nc23)cccc1-n1ncnc1C . Its measured pKd is < 8.00

----------
target: human TYK2 (JH2domain-pseudokinase) (Homo sapiens (Human)); experiment: TYK2 JH2 Domain Binding Assay (KINOMEscan, DiscoveRx); settings: 11-point dilution, duplicate
pKd: −log10 of the molar value.
endpoint.name: pKd

Reported pKd for Cc1cnn(-c2ccc(Nc3cc(NC(=O)C4CC4)nc4[nH]c(C)nc34)c(N(C)S(C)(=O)=O)c2)c1 was 9.00 to 9.30

pKd in this record for Cc1cc(Nc2cc(Nc3ccc(-c4nc(C)sc4C)cc3S(C)(=O)=O)c3nc(C)[nH]c3n2)nc(C)n1 : > 10.00

// recorded pKd for Cn1cnc(-c2ccc(Nc3cc(NC(=O)[C@H]4CC4(F)F)nc4[nH]c(C(F)F)nc34)c(S(C)(=O)=O)c2)c1 : 9.00 to 9.30

Recorded pKd (molecule COc1c(Nc2cc(NC(=O)C3CC3)nc3[nH]c(C4CC4)nc23)cccc1-c1ncn(C)n1 ): < 8.00

So, Cc1cc(Nc2cc(Nc3ccc(-c4c(C)nn(C)c4C)cc3S(C)(=O)=O)c3nc(C)[nH]c3n2)nc(C)n1 ? Its pKd was 9.30 to 10.00

Query Cc1nc2c(Nc3ccc(C4CCCO4)cc3S(C)(=O)=O)cc(Nc3cccc(C#N)n3)nc2[nH]1 (stereo not drawn) yields pKd of 9.30 to 10.00

// recorded pKd for Cc1ncc(Nc2cc(Nc3ccc([C@@H]4CCCCO4)cc3S(C)(=O)=O)c3nc(C(F)F)[nH]c3n2)nc1C : 9.00 to 9.30

pKd measured on COc1c(Nc2cc(Nc3ccc(N4CCOCC4)cn3)nc3[nH]cnc23)cccc1-c1ncn(C)n1 = 9.30 to 10.00

According to the records, this molecule CN(c1cc(C(F)F)ccc1Nc1cc(Nc2ccn(C)n2)nc2[nH]c(C(F)F)nc12)S(C)(=O)=O displays pKd of 9.00 to 9.30

Lab note: measured pKd of Cc1nc2c(Nc3ccc([C@@H]4CCC(C)(C)CO4)cc3S(C)(=O)=O)cc(Nc3cnc(C)c(C)n3)nc2[nH]1 was 8.00 to 9.00

# molecule COc1cc(-c2cncn2C)ccc1Nc1cc(NC(=O)C2CC2)nc2[nH]c(C(F)F)nc12 ; its pKd = 8.00 to 9.00

molecule COc1cc(C(=O)N2CCC2)ccc1Nc1cc(NC(=O)C2CC2)nc2[nH]c(C(F)F)nc12 , pKd observed: 9.00 to 9.30

Looking up CC1(C)CC[C@H](c2ccc(Nc3cc(NC(=O)C4CC4)nc4[nH]c(C(F)F)nc34)c(S(C)(=O)=O)c2)OC1 , I found its pKd recorded as 8.00 to 9.00

The molecule listed as CN=S(C)(=O)c1cc(-c2nc(COC)c(C)s2)ccc1Nc1cc(NC(=O)C2CC2)nc2[nH]c(C(F)F)nc12 (stereo not drawn) has a reported pKd of 9.30 to 10.00

Given item Cc1csc(-c2ccc(Nc3cc(NC(=O)C4CC4)nc4[nH]c(C(F)F)nc34)c(S(C)(=O)=O)c2)n1 , the value recorded as its pKd is 9.30 to 10.00

----------
target: human TYK2 (JH2domain-pseudokinase) (Homo sapiens (Human)); assay: TYK2 JH2 Domain Binding Assay (KINOMEscan, DiscoveRx); conditions: 11-point dilution, duplicate
// Kd lookup, one value per entry

Entry COc1c(Nc2cc(Nc3cccc(C#N)n3)nc3[nH]c(C)nc23)cccc1-c1nccs1 — recorded Kd = 1 to 10 nM

// recorded Kd for Cc1nc2c(Nc3ccc(-c4cncn4C)cc3N(C)S(C)(=O)=O)cc(NC(=O)C3CC3(F)F)nc2[nH]1 (stereo not shown) : 0.5 to 1 nM

Input CN=S(C)(=O)c1ccccc1Nc1cc(NC(=O)C2CC2)nc2[nH]c(C)nc12 (stereo in doubt) [I-548] . Output Kd: 0.1 to 0.5 nM

Note to self: Kd recorded for COc1c(Nc2cc(Nc3ccc(C(=O)N4CCCC4)c(C(F)(F)F)n3)nc3[nH]c(C(F)F)nc23)cccc1-c1nnn(C)n1 was 0.1 to 0.5 nM

response.value for COc1c(Nc2cc(NC(=O)C3CC3)nc3[nH]c(C(F)F)nc23)cccc1-n1nc(C)nc1C (field: Kd) = > 10 nM

Input COc1c(Nc2cc(Nc3cc(C)nc(C)n3)nc3[nH]cnc23)cccc1-c1ncn(C)n1 . Output Kd: 0.1 to 0.5 nM

Query Cc1nc2c(Nc3ccc(-c4nc(C)c(C)s4)cc3S(C)(=O)=O)cc(NC(=O)C3CC3)nc2[nH]1 yields Kd of 0.1 to 0.5 nM

Reported Kd ( Cc1nc2c(Nc3ccccc3[S@@+](C)[O-])cc(NC(=O)C3CC3)nc2[nH]1 ) = > 10 nM

Memo: Cc1nc(-c2ccc(Nc3cc(NC(=O)C4CC4)nc4[nH]c(C)nc34)c(N(C)S(C)(=O)=O)c2)n(C)n1 , reported Kd: > 10 nM

Kd recorded for this compound, Cc1cc(Nc2cc(Nc3ccc(C4CCCCO4)cc3S(C)(=O)=O)c3nc(C)[nH]c3n2)nc(C)n1 (stereo not shown) , is < 0.1 nM

---
Per the records, this compound ( Cc1nc2c(Nc3ccc(-c4nn(C)cc4C)cc3S(C)(=O)=O)cc(NC(=O)[C@H]3C[C@H]3F)nc2[nH]1 ) has Kd equal to < 0.1 nM

Record COc1c(Nc2cc(Nc3ccc4c(n3)C(F)(F)CC4)nc3[nH]c(C)nc23)cccc1-c1cnn(C)n1 , field Kd: 0.5 to 1 nM

Entry COc1c(Nc2cc(Nc3cccc(C#N)n3)nc3[nH]c(C(F)F)nc23)cccc1-c1nnn(C)n1 — recorded Kd = 0.1 to 0.5 nM

Kd for Cn1cncc1-c1ccc(Nc2cc(NC(=O)C3CC3(F)F)nc3[nH]c(C(F)F)nc23)c(S(C)(=O)=O)c1 (stereo not shown) is 0.1 to 0.5 nM

Kd in this record for Cc1nc2c(Nc3ccc(-c4nc(C)c(C)s4)cc3S(C)(=O)=O)cc(Nc3cccc(C#N)n3)nc2[nH]1 : 0.5 to 1 nM

Form: compound = Cc1ncc(Nc2cc(Nc3ccc(C4=NC(C)(C)CS4)cc3S(C)(=O)=O)c3nc(C(F)F)[nH]c3n2)nc1C ; Kd = 1 to 10 nM

----------
Reported pKd is given for each of the following compounds.
molecular target: human TYK2 (JH2domain-pseudokinase) (Homo sapiens (Human)); assay: TYK2 JH2 Domain Binding Assay (KINOMEscan, DiscoveRx); conditions: 11-point dilution, duplicate
pKd: −log10 of the molar value.

The following compounds have reported results that may help.
For CN(c1ccccc1Nc1cc(Nc2cccc(C(F)(F)F)n2)nc2[nH]c(C(F)F)nc12)S(C)(=O)=O [I-87] the compound record lists pKd as 9.00 to 9.30

So for COc1c(Nc2cc(Nc3ccc(C(C)(C)OC)c(C#N)n3)nc3[nH]c(C(F)F)nc23)cccc1-c1nnn(C)n1 [I-49] , the logged pKd turned out to be < 8.00

For Cc1nc2c(Nc3ccc(C4CCC(C)(C)O4)cc3S(C)(=O)=O)cc(NC(=O)C3CC3)nc2[nH]1 (stereo not shown) [I-330] the compound record lists pKd as 9.30 to 10.00

What the record says about COc1c(Nc2cc(Nc3ccc(N4CC[C@H](OC)C4)c(C#N)n3)nc3[nH]c(C(F)F)nc23)cccc1-c1nnn(C)n1 [I-39] : pKd is 9.30 to 10.00

Query COc1cc(-c2cncn2C)ccc1Nc1cc(Nc2cccc(C#N)n2)nc2[nH]c(C)nc12 [I-160] yields pKd of 8.00 to 9.00

Others:
Looking up COc1c(Nc2cc(Nc3cccc(C(F)(F)F)n3)nc3[nH]c(C)nc23)cccc1-c1ncnn1C [I-627] , I see its pKd listed as 8.00 to 9.00

So for COc1c(Nc2cc(Nc3cc(F)c(N4CC(OC)C4)cn3)nc3[nH]c(C)nc23)cccc1-c1nc(C)nn1C [I-168] , the logged pKd turned out to be < 8.00

----------
biological target: human TYK2 (JH2domain-pseudokinase) (Homo sapiens (Human), UniProt P29597); experiment: TYK2 JH2 Domain Binding Assay (KINOMEscan, DiscoveRx); conditions: 11-point dilution, duplicate
Sequence (P29597 556-888): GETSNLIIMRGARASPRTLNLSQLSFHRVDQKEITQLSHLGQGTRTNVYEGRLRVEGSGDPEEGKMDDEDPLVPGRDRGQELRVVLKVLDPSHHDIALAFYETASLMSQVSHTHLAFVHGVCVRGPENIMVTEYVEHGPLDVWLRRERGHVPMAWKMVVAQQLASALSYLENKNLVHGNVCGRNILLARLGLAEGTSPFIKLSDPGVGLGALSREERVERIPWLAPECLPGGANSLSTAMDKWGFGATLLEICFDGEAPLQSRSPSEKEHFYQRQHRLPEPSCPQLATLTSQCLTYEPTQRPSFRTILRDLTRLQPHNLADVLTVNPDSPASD
endpoint.name: Kd

Worked examples, 4 compounds total:
// sample Cc1ccc(Nc2cc(Nc3ccc(Cl)cc3S(C)(=O)=O)c3nc(C(F)F)[nH]c3n2)nn1 , its Kd was 0.1 to 0.5 nM

Just so you know, measured Kd for COc1c(Nc2cc(NC(=O)[C@H]3C[C@@H]3F)nc3[nH]c(C)nc23)cccc1-c1ncn(C)n1 came out at 1 to 10 nM

In plain terms, Cc1nc2c(Nc3ccc(C(F)F)cc3N(C)S(C)(=O)=O)cc(Nc3cccc(C#N)n3)nc2[nH]1 has a documented Kd of 0.1 to 0.5 nM

Given item Cc1cc(Nc2cc(Nc3ccc(-c4nn(C)cc4C)cc3S(C)(=O)=O)c3nc(C(F)F)[nH]c3n2)nc(C)n1 , the value recorded as its Kd is < 0.1 nM

---
Lab note: Cc1c(-c2ccc(Nc3cc(Nc4cccc(C(F)(F)F)n4)nc4[nH]c(C(F)F)nc34)c(S(C)(=O)=O)c2)cnn1C gave Kd of 0.1 to 0.5 nM

Value of Kd reported for the compound COc1c(Nc2cc(Nc3cc(C)cc(C#N)n3)nc3[nH]c(C(F)F)nc23)cccc1-c1ccn(C)n1 is 0.5 to 1 nM

// Kd value for Cc1nc2c(Nc3ccc(-c4cnn(C)c4)cc3N(C)S(C)(=O)=O)cc(NC(=O)[C@@H]3C[C@@H]3F)nc2[nH]1 [I-268] : 0.1 to 0.5 nM

The compound listed as CS(=O)(=O)c1cc([C@@H]2CCCOC2)ccc1Nc1cc(NC(=O)C2CC2)nc2[nH]c(C(F)F)nc12 has a reported Kd of 0.1 to 0.5 nM

Reported Kd ( CN(c1cc(-c2cnn(C)c2)ccc1Nc1cc(NC(=O)[C@@H]2C[C@@H]2F)nc2[nH]c(C(F)F)nc12)S(C)(=O)=O (stereo in doubt) [Compound I-207] ) = 0.1 to 0.5 nM

response.value for Cc1nc2c(Nc3ccc(-c4ncc(C)n4C)cc3S(C)(=O)=O)cc(NC(=O)C3CC3)nc2[nH]1 (field: Kd) = 0.1 to 0.5 nM

The value of Kd measured for the compound COC1CN(c2ccc(Nc3cc(NC(=O)C4CC4)nc4[nH]c(C(F)F)nc34)c(N(C)S(C)(=O)=O)c2)C1 turned out to be 1 to 10 nM

Lookup result for CS(=O)(=O)c1cc(F)ccc1Nc1cc(Nc2ccc3c(n2)CCOC3)nc2[nH]c(C(F)F)nc12 ; measured Kd: 0.1 to 0.5 nM

Form field Kd, entry C[S@@+]([O-])c1ccccc1Nc1cc(NC(=O)C2CC2)nc2[nH]c(C(F)F)nc12 : > 10 nM

Looking up COc1c(Nc2cc(NC(=O)C3CC3)nc3[nH]c(C(F)F)nc23)cccc1-c1nc(C)cs1 , I found its Kd recorded as 1 to 10 nM

So, COc1c(Nc2cc(Nc3ccc(C(C)C)c(C#N)n3)nc3[nH]c(C)nc23)cccc1-c1nnn(C)n1 ? Its Kd was 1 to 10 nM
